Target: UniProt P55085
Sequence (P55085 26-397): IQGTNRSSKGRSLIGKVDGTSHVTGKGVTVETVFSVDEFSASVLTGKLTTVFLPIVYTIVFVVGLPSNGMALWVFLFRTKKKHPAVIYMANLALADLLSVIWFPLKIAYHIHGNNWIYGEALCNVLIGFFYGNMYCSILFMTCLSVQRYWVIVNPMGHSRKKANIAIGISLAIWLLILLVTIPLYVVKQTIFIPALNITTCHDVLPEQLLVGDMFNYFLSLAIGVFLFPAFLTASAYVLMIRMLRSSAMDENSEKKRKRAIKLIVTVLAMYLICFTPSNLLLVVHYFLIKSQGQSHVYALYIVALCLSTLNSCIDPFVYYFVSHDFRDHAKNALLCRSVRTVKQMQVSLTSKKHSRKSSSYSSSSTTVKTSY
Assay: Intracellular calcium dynamics assay (modified Hawthorne et al. method) in HCT-15 cells
Format: cell-based
Design: endogenous in cells; host or cells: HCT-15 human colorectal adenocarcinoma cells
Conditions: HCT-15 human colorectal adenocarcinoma cells expressing PAR-2 inherently; Ca2+ sensitive fluorescent dye, 2.5 mM probenecid; read-out: Agonist activity (EC50)
Square brackets hold non-standard residues; d marks the D form. Peptide text beside a SMILES is read from it. * marks the point of attachment. NHCH2CH2(piperidin-1-yl) = C1CCN(CCN*)CC1; Cha = N[C@@H](CC1CCCCC1)C(=O)O; X1 = Cc1cc(C(=O)*)oc1C
measured-metric: pEC50
One number for each entry, as −log10 of the molar value.

Item: Cc1cc(C(=O)N[C@@H](CC2CCCCC2)C(=O)NCC(=O)NCC(=O)N[C@@H](CC2CCCCC2)C(=O)NCCN2CCCCC2)oc1C [Example 8] (X1-[Cha]GG[Cha]-{NHCH2CH2(piperidin-1-yl)}) Test system: UniProt P55085 Read-out: pEC50 Value: ? 4.78

The reported numbers originate from patent US7910556B2.
